Listed next: entries and their corresponding self-cleavage.
B1: CPEB3 Ribozyme (parent)
chain: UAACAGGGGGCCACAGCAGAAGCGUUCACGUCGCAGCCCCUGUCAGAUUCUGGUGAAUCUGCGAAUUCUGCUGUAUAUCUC

- Variants of: B1
- Experiment notes: self-cleavage, relative activity (ratio to wild type); higher = more cleavage; in vitro, sequencing
Enter a number only.

1. UAACAGGGCGCCACAGCAGAAGCGUUCACGUCGCAGCCCCUGUCUGAUUCUGGUGAAUCUGCGAAUUCUGCUGUAUAUCUC [G9C A45U] :: 0.13

Lab note: UAACAGGGGGCCACAGCAGAAGCGUUCACGUCGCAGCCCCUGUCAGACUCUGGUGAAUCUGCGAAUCCUGCUGUAUAUCUC [U48C U67C] gave self-cleavage of 0.3

// UAACAGGGGGCCACAGCAGAAGCGUUCACGUCGCAGCCCCUGUCAGAUUCUGGUGAAUCUGCGAAUUCUACCGUAUAUCUC [G70A U72C] : self-cleavage value = 0.42

Looking up UAACAGGGGGCCACAGCACAAGCAUUCACGUCGCAGCCCCUGUCAGAUUCUGGUGAAUCUGCGAAUUCUGCUGUAUAUCUC [G19C G24A] , I see its self-cleavage listed as 0.11

# self-cleavage of UAACAGGGGGCCACAGCAGAAGCGUUCACGUCGCAGCCCCUGUCAGAUUCUGGUGAAUCUGCGAAUUCUGCUGGAUACCUC [U74G U78C] = 1.26

# self-cleavage (variant: UAACAGCGGGCCACAGCAGAAGCGUCCACGUCGCAGCCCCUGUCAGAUUCUGGUGAAUCUGCGAAUUCUGCUGUAUAUCUC [G7C U26C] ) is 0.35

Consider UAACAGGGGGCCACAGCAGAAGCGUUCACGUCGCAGCCCCUGUCAGAUUCUGGUGAAUCUGCGAAUUCAGCAGUAUAUCUC [U69A U72A] . Its measured self-cleavage is 0.33
